Target: TYK2 (Homo sapiens)
Construct: JAK1 (aa 850-1154) and TYK2 (aa 871-1187) are expressed with an N-terminally fused GST-tag; GST (N)
Sequence (P29597 871-1187): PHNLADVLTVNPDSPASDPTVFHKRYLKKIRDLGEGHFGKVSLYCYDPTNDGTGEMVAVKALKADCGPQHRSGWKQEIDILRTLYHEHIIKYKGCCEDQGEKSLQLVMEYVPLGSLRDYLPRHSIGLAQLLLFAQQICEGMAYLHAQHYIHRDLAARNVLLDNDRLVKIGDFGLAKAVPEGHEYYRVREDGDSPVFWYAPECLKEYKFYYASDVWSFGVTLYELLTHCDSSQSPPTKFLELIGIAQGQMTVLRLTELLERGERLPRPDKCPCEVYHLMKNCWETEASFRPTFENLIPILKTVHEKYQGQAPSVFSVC
Experiment: JAK kinase assay (HTRF, phosphorylation of synthetic peptide), TYK2
Conditions: catalytic domain, ATP at Km (13 μM); read-out: TYK2 kinase inhibitory activity (EC50)
pEC50: −log10 of the molar value.

[
  {
    "COMPOUND": "CN(CC1CCCCO1)S(=O)(=O)N1CCN(c2ncnc3[nH]ccc23)CC12CC2 (stereo not shown)",
    "pEC50": "6.30 to 7.00"
  },
  {
    "COMPOUND": "CN(C[C@H]1CCCN1)S(=O)(=O)N1CCN(c2ncnc3[nH]ccc23)CC12CC2",
    "pEC50": "< 6.30"
  },
  {
    "COMPOUND": "CN(CC1CCNCC1)S(=O)(=O)N1CCN(c2ncnc3[nH]ccc23)CC12CC2",
    "pEC50": "< 6.30"
  },
  {
    "COMPOUND": "CN(CC1CCN(C(=O)C(O)CO)C1)S(=O)(=O)N1CCN(c2ncnc3[nH]ccc23)CC12CC2 (stereo not shown)",
    "pEC50": "< 6.30"
  }
]

----------
Biological target: JAK3 (Homo sapiens)
Construct: All four purified enzymes contain only the catalytic domain; His (N)
Sequence (P52333 822-1111 limits assumed): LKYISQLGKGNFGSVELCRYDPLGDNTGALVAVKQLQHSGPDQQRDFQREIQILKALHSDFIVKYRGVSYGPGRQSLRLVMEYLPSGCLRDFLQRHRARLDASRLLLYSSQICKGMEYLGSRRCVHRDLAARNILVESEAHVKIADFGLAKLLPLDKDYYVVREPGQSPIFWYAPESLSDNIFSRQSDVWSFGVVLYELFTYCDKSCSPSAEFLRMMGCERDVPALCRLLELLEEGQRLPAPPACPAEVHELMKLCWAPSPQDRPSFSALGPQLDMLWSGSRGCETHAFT
Experiment: JAK kinase assay (HTRF, phosphorylation of synthetic peptide), JAK3
Settings: catalytic domain, ATP at Km (2 μM); read-out: JAK3 kinase inhibitory activity (EC50)
The following compounds are listed with their measured EC50 values.
PROPERTY: EC50

[
  {
    "SMILES_STRING": "CN(C1CN(C(=O)CO)C1)S(=O)(=O)N1CCN(c2ncnc3[nH]ccc23)CC12CC2",
    "TARGET_OF_ASSAY": "JAK3 (Homo sapiens)",
    "RECORDED_RESULT": "< 100 nM"
  },
  {
    "SMILES_STRING": "O=S(=O)(N(CCc1ccccc1)CCc1ccc(F)cc1)N1CCN(c2ncnc3[nH]ccc23)CC12CC2",
    "TARGET_OF_ASSAY": "JAK3 (Homo sapiens)",
    "RECORDED_RESULT": "> 500 nM"
  },
  {
    "SMILES_STRING": "N#CCN(CC#N)S(=O)(=O)N1CCN(c2ncnc3[nH]ccc23)CC12CC2",
    "TARGET_OF_ASSAY": "JAK3 (Homo sapiens)",
    "RECORDED_RESULT": "< 100 nM"
  },
  {
    "SMILES_STRING": "CN(Cc1ccc(S(N)(=O)=O)cc1)S(=O)(=O)N1CCN(c2ncnc3[nH]ccc23)CC12CC2",
    "TARGET_OF_ASSAY": "JAK3 (Homo sapiens)",
    "RECORDED_RESULT": "< 100 nM"
  },
  {
    "SMILES_STRING": "CC(C)NS(=O)(=O)N1CCN(c2ncnc3[nH]ccc23)CC12CC2",
    "TARGET_OF_ASSAY": "JAK3 (Homo sapiens)",
    "RECORDED_RESULT": "100 to 500 nM"
  },
  {
    "SMILES_STRING": "CN(Cc1ccccn1)S(=O)(=O)N1CCN(c2ncnc3[nH]ccc23)CC12CC2",
    "TARGET_OF_ASSAY": "JAK3 (Homo sapiens)",
    "RECORDED_RESULT": "100 to 500 nM"
  },
  {
    "SMILES_STRING": "CN(Cc1ccc(OC(F)(F)F)cc1)S(=O)(=O)N1CCN(c2ncnc3[nH]ccc23)CC12CC2",
    "TARGET_OF_ASSAY": "JAK3 (Homo sapiens)",
    "RECORDED_RESULT": "> 500 nM"
  },
  {
    "SMILES_STRING": "CN(C[C@H]1CCCN1)S(=O)(=O)N1CCN(c2ncnc3[nH]ccc23)CC12CC2",
    "TARGET_OF_ASSAY": "JAK3 (Homo sapiens)",
    "RECORDED_RESULT": "> 500 nM"
  }
]
